Reference source for all entries: ChEMBL document CHEMBL1135591

- measurement notes: Free radical scavenging assessed as 50% reduction in DPPH absorbance (516 nm)
- Assay type: functional
metric: EC50

Study these solved cases before continuing.
molecule: CCCCCCCCCC(=O)OC[C@H](O)[C@H]1OC(O)=C(O[C@@H]2OC(CO)[C@@H](O)C(O)[C@@H]2O)C1=O (some centres not stated)
EC50: 4.2 10uM

molecule: O=C1C(O[C@@H]2OC(CO)[C@@H](O)C(O)[C@@H]2O)=C(O)O[C@@H]1[C@@H](O)CO (some centres not stated)
EC50: 6.1 10uM

molecule: O=C1O[C@H]([C@@H](O)CO)C(O)=C1O [ASCORBIC ACID]
EC50: 2.2 10uM

molecule: CCCCCC(=O)OC[C@H](O)[C@H]1OC(O)=C(O[C@@H]2OC(CO)[C@@H](O)C(O)[C@@H]2O)C1=O (some centres not stated)
EC50: 5.4 10uM

Batch: EC50 for all items listed.
1. CCCCCCCCCCCCCCCCCC(=O)OC[C@H](O)[C@H]1OC(O)=C(O[C@@H]2OC(CO)[C@@H](O)C(O)[C@@H]2O)C1=O (some centres not stated)
2. CCCCCCCCCCCCCC(=O)OC[C@H](O)[C@H]1OC(O)=C(O[C@@H]2OC(CO)[C@@H](O)C(O)[C@@H]2O)C1=O (some centres not stated)
3. CCCCCCCCCCCC(=O)OC[C@H](O)[C@H]1OC(O)=C(O[C@@H]2OC(CO)[C@@H](O)C(O)[C@@H]2O)C1=O (some centres not stated)

Reply text:
4.4 10uM
4.4 10uM
4.6 10uM

* * *

- measurement notes: Free radical scavenging assessed as 50% reduction in DPPH absorbance (516 nm)
- Format: functional
Can you tell me EC50 for the items I'm about to list?

Study these solved cases before continuing.
compound: CCCCCCCC(=O)OC[C@H](O)[C@H]1OC(O)=C(O[C@@H]2OC(CO)[C@@H](O)C(O)[C@@H]2O)C1=O (stereo partly drawn)
EC50: 5.7 10uM
//
compound: CCCC(=O)OC[C@H](O)[C@H]1OC(O)=C(O[C@@H]2OC(CO)[C@@H](O)C(O)[C@@H]2O)C1=O (stereo partly drawn)
EC50: 5.9 10uM

API: the following record is the query input.
Inquiry: Look up EC50 for this compound: CCCCCCCCCCCCCCCC(=O)OC[C@H](O)[C@H]1OC(O)=C(O[C@@H]2OC(CO)[C@@H](O)C(O)[C@@H]2O)C1=O (stereo partly drawn)
Reply text: 4.1 10uM
